Cited source for all entries: patent US9340577B2

Listed below: IC50 values for each entry.
molecular target: A*0206 (Homo sapiens, UniProt P04439, D140Y/D185E/D98H/E176V/E277Q/F33Y/G131W/G231S/I119V/I121R/I166T/I218V/L300P/L318F/N151K/N90K/P208A/P217A/Q86G/Q94H/R138H/R169H/T345S); experiment: biochemical; type: binding
No end group written: not given here.
measurement.name: IC50 (nM)

>>> df
                     residue_string  inequality_operator  measured_number
 0    VLEGKEVLL [Peptide 9013.0019]                    >            20000
 1  GLNLSLSCHAA [Peptide 9013.0312]                    >            20000
 2  RTTVKTITVSV [Peptide 9013.0318]                    =              137
 3      FLSYFKLFL [Peptide 1578.37]                    =               45
 4    ITIGVLVGV [Peptide 9013.0109]                    =               55
 5   SLQELFIPNI [Peptide 9013.0182]                    =               66
 6   YLWWVNNQSV [Peptide 9013.0197]                    =               65
 7    TLGIMIGVL [Peptide 9013.0108]                    =             9060
 8  GLMIGVLVGVA [Peptide 9013.0345]                    =             3300
 9   ITVNNSGSYV [Peptide 9013.0187]                    =             1010
10   YLYYRPGVNL [Peptide 9013.0209]                    =              940
11   TIESTPFNVV [Peptide 9013.0130]                    =             3230
12    ILNIIQNDT [Peptide 9013.0033]                    >            20000
13   YACFVSNLAV [Peptide 9013.0248]                    =               71
14  KVTIESTPFNV [Peptide 9013.0265]                    =               93
15      ALYWYRTGL [Peptide 1578.30]                    =            11500
16   LLFWNPPTTA [Peptide 9013.0123]                    =             1170
17   LLLSNDNRTL [Peptide 9013.0205]                    >            20000
18  NLLYGPDDPTI [Peptide 9013.0310]                    >            20000
19     FLQGSVICFV [Peptide 1578.05]                    =               73
20   CLAHNSDTGL [Peptide 9013.0191]                    >            20000
21      RILQQLLFA [Peptide 1525.14]                    =               20
22   GTQQATPGPV [Peptide 9013.0142]                    >            20000
23    RLLTLLSVT [Peptide 9013.0076]                    =              482
24   YLLHVIKSDL [Peptide 9013.0152]                    =               62
25      KLLEKLLCI [Peptide 1578.15]                    =               51
26      FQYAQLADV [Peptide 1578.36]                    =               32
27    TQVLFIAKV [Peptide 9013.0105]                    =               46
28      VLGEAMSQA [Peptide 1539.08]                    =             1090
29  YVCGIQNSVSV [Peptide 9013.0337]                    =               58
